- measurement-target: CD63 large extracellular domain, recombinant (Homo sapiens, UniProt P08962 103-203)
- Sequence (P08962 103-203): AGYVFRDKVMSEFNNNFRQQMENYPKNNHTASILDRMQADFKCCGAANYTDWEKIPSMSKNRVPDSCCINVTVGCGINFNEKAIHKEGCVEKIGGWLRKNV
- assay-details: ELISA; PBS pH 7.4, 2.0 mM MgCl2, 0.02% Tween 20, 100 ug/mL salmon sperm DNA; ELISA 0.5 h; cells at RT 1 h (Methods) or 37 C 30 min (Results)
- setup-conditions: protein: commercial; tags: C-terminal His; label: 5' or 3' biotin (ELISA)
pKd: −log10 of the molar value.
endpoint-label: pKd

[[record]]
binder = "TAACACGACAGACGTTCGGAGGTCGAACCCTGACAGCGTGGGC (ssDNA) [CD63-1]"
readout_value = 7.41


Origin of the recorded values: paper PMC7730289
